EXPERIMENTAL TARGET: Mitogen-activated protein kinase 8 (Homo sapiens)
Sequence (P45983 whole entry): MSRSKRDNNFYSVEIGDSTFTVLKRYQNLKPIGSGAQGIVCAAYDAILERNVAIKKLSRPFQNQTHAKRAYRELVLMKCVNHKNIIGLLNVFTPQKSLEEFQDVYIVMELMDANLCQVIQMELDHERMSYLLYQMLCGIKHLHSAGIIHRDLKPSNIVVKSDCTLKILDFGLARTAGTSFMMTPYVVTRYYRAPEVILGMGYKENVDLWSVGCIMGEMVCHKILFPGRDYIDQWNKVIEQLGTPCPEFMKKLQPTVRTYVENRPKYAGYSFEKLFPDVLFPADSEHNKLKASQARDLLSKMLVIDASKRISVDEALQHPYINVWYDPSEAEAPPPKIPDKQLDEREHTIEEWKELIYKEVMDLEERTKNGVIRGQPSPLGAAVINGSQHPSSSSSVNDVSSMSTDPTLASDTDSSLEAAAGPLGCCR
ASSAY EXPLANATION: Inhibition of recombinant JNK1 after 60 mins by TR-FRET assay
MEASUREMENT LABEL: pIC50
Quick note: pIC50 means taking -log10 of the concentration in moles per liter.

Example entries begin here.
COMPOUND	pIC50
Nc1cccc2ccc(-n3c(-c4ccnc(NC5CCOCC5)c4)n[nH]c3=O)cc12	5.59
O=c1[nH]nc(-c2ccnc(NC3CCC3)c2)n1-c1ccc2ccccc2c1	5.74
O=c1n(Cc2ccccn2)nc(-c2ccnc(NC3CCOCC3)c2)n1-c1ccc2ccccc2c1	6.00
O=c1n(C2CCNCC2)nc(-c2ccnc(NC3CCOCC3)c2)n1-c1ccc2ccccc2c1	5.35
Nc1ccc2cc(-n3c(-c4ccnc(NC5CCOCC5)c4)n[nH]c3=O)ccc2c1	5.77

QUERY: Reported pIC50, compound O=c1n(C2CCOC2)nc(-c2ccnc(NC3CCOCC3)c2)n1-c1ccc2ccccc2c1 (centres undefined) : ____
RESULT: 5.42

QUERY: Reported pIC50, compound "O=c1n(CC2CCOCC2)nc(-c2ccnc(NC3CCCCC3)c2)n1-c1ccc2ccccc2c1" : ____
RESULT: 6.38

QUERY: Reported pIC50, compound "COC(=O)N1CCC(n2nc(-c3ccnc(NC4CCOCC4)c3)n(-c3ccc4ccccc4c3)c2=O)CC1" : ____
RESULT: 6.44

* * *

EXPERIMENTAL TARGET: Cyclin-dependent kinase 5/CDK5 activator 1 (Homo sapiens) (UniProt Q00535+Q15078)
Sequence (Q00535 whole entry): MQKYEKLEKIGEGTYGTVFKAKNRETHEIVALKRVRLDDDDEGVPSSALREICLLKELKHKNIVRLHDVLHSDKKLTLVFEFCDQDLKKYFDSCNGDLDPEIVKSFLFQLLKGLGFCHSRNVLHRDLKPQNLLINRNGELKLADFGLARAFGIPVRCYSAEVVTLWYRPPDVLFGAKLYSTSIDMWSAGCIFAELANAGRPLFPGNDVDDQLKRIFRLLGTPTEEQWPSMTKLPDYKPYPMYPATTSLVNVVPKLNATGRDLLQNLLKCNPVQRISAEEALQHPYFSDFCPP
Sequence (Q15078 99-307 partner limits assumed): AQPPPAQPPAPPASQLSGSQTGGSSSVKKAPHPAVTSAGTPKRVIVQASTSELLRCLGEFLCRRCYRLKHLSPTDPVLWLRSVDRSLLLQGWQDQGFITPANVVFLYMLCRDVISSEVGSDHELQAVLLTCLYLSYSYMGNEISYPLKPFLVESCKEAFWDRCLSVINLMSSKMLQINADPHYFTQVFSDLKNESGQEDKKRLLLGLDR
ASSAY EXPLANATION: Inhibition of CDK5/p25 at 10 uM after 60 mins by TR-FRET assay
Format: protein-complex assay
MEASUREMENT LABEL: inhibition (%)
// units = %; emit number, no label

COMPOUND	VALUE
O=c1[nH]nc(-c2ccnc(NC3CCCOC3)c2)n1-c1ccc2ccccc2c1 (stereo unspecified)	15
O=c1n(Cc2ccccn2)nc(-c2ccnc(NC3CCOCC3)c2)n1-c1ccc2ccccc2c1	0
O=c1[nH]nc(-c2ccnc(NC3CCCCC3)c2)n1-c1ccc2ccccc2c1	8
O=c1[nH]nc(-c2ccnc(NC3CCOCC3)c2)n1-c1ccc2ccccc2c1	24
O=c1n(Cc2ccncc2)nc(-c2ccnc(NC3CCCCC3)c2)n1-c1ccc2ccccc2c1	-3

API: the following record is the query input.
QUERY: Reported inhibition, compound "O=c1n(C2CCOCC2)nc(-c2ccnc(NC3CCCCC3)c2)n1-c1ccc2ccccc2c1" : ____
RESULT: 3

* * *

inhibition reference
EXPERIMENTAL TARGET: Serine/threonine-protein kinase PLK3 (Homo sapiens)
ASSAY EXPLANATION: Inhibition of PLK3 at 10 uM after 60 mins by TR-FRET assay
Answer shape: numeric part, then the unit.

Example entries begin here.
COMPOUND	MEASUREMENT LABEL	VALUE
O=c1[nH]nc(-c2ccnc(NC3CCOCC3)c2)n1-c1ccc2ccccc2c1	inhibition	13%
O=c1n(Cc2ccncc2)nc(-c2ccnc(NC3CCCCC3)c2)n1-c1ccc2ccccc2c1	inhibition	-5%
O=c1n(C2CCOCC2)nc(-c2ccnc(NC3CCCCC3)c2)n1-c1ccc2ccccc2c1	inhibition	32%

QUERY: Reported inhibition, compound O=c1[nH]nc(-c2ccnc(NC3CCCOC3)c2)n1-c1ccc2ccccc2c1 (stereo unspecified) : ____
RESULT: 79%

QUERY: Reported inhibition, compound "O=c1[nH]nc(-c2ccnc(NC3CCCCC3)c2)n1-c1ccc2ccccc2c1" : ____
RESULT: 17%

QUERY: Reported inhibition, compound "O=c1n(Cc2ccccn2)nc(-c2ccnc(NC3CCOCC3)c2)n1-c1ccc2ccccc2c1" : ____
RESULT: 5%
